pIC50: −log10 of the molar value.
pIC50, cholesterol ester hydrolase (CEH) (Bos taurus), per-entry values.
assay readout: pIC50

molecule: O=C(Oc1ccc2oc3ccccc3c2c1)N1CCSCC1 [Example 2]
test value: 6.29
//
molecule: CC1(C)CCN(C(=O)Oc2ccc3oc4ccccc4c3c2)CC1 [Example 3]
test value: 5.19
//
molecule: O=C(Oc1ccc2oc3ccccc3c2c1)N1CCC2(CCCC2)CC1 [Example 4]
test value: 4.82
